Hey, just so you know, these numbers are from patent US4864023A.

Consider the following MIC values measured on Enterobacter cloacae NR 2946.
READOUT_LABEL: MIC (µg/mL)

1. CN1COc2c(N3CCN(Cc4ccc(N)cc4)CC3)c(F)cc3c(=O)c(C(=O)O)cn1c23 [Example 53] = 0.2
2. CCNCC1CCN(c2c(F)cc3c(=O)c(C(=O)O)cn4c3c2OCN4C)C1 (centres unmarked) [Example 18] = 0.05
3. CC(=O)CCN1CCN(c2c(F)cc3c(=O)c(C(=O)O)cn4c3c2OCN4C)CC1 [Example 51] = 0.05
4. CN1COc2c(N3CCC(CN)C3)c(F)cc3c(=O)c(C(=O)O)cn1c23 (centres unmarked) [Example 54] = 0.1
5. C=CCN1CCN(c2c(F)cc3c(=O)c(C(=O)O)cn4c3c2OCN4C)CC1 [Example 46] = 0.2
6. CN1COc2c(N3CCN(CCO)CC3)c(F)cc3c(=O)c(C(=O)O)cn1c23 [Example 15] = 0.1
7. CN1COc2c(N3CCNC(=O)C3)c(F)cc3c(=O)c(C(=O)O)cn1c23 [Example 24] = 3.13
8. CC1Oc2c(N3CCN(C)CC3)c(F)cc3c(=O)c(C(=O)O)cn(c23)N1C (centres unmarked) [Example 26] = 0.78
9. CCNC1CCN(c2c(F)cc3c(=O)c(C(=O)O)cn4c3c2OCN4C)CC1 [Example 35] = 0.39
10. CN1COc2c(N3CCC(CN)CC3)c(F)cc3c(=O)c(C(=O)O)cn1c23 [Example 12] = 0.78
11. CN1COc2c(N3CCOCC3)c(F)cc3c(=O)c(C(=O)O)cn1c23 [Example 9] = 0.013
12. CN1CCN(c2c(F)cc3c(=O)c(C(=O)O)cn4c3c2OC(CO)N4C)CC1 (centres unmarked) [Example 27] = 0.78
13. CN1COc2c(N3CCC(O)C3)c(F)cc3c(=O)c(C(=O)O)cn1c23 (centres unmarked) [Example 21] = 0.78
14. CN1COc2c(N3CCC(Cl)C3)c(F)cc3c(=O)c(C(=O)O)cn1c23 (centres unmarked) [Example 59] = 0.78

---

- System: Staphylococcus aureus NR 2855
- ASSAY_PROTOCOL: in vitro antibacterial activity, standard agar dilution method
- Format: cell-based
- CONDITION_NOTES: NR2855; Staphylococcus aureus NR 2855; aerobic; agar dilution; read-out: minimum inhibitory concentration (MIC)
Hi! Just check whether MIC is below 2 µg/mL. Below gives 1.0, equal or above gives 0.0.

1. CN1COc2c(N3CCCNCC3)c(F)cc3c(=O)c(C(=O)O)cn1c23 = 0.0
2. CC(=O)CN1CCN(c2c(F)cc3c(=O)c(C(=O)O)cn4c3c2OCN4C)CC1 = 1.0
3. CCNC1CCN(c2c(F)cc3c(=O)c(C(=O)O)cn4c3c2OCN4C)C1 (stereo not drawn) = 1.0
4. CN1COc2c(N3CCNCC3)c(F)cc3c(=O)c(C(=O)O)cn1c23 = 0.0
5. CN1COc2c(N3CCN(CC(=O)c4ccccc4)CC3)c(F)cc3c(=O)c(C(=O)O)cn1c23 = 0.0
6. CC(=O)CCN1CCN(c2c(F)cc3c(=O)c(C(=O)O)cn4c3c2OCN4C)CC1 = 1.0
7. CCNC1CCN(c2c(F)cc3c(=O)c(C(=O)O)cn4c3c2OCN4C)CC1 = 1.0
8. CCNCC1CCN(c2c(F)cc3c(=O)c(C(=O)O)cn4c3c2OCN4C)C1 (stereo not drawn) = 1.0
9. CNC1CCN(c2c(F)cc3c(=O)c(C(=O)O)cn4c3c2OCN4C)C1 (stereo not drawn) = 1.0
